System: Es-2
Experiment: Primary qHTS to identify gynecologic anti-cancer compounds using libraries of approved drugs and bioactive compounds (AID 1345084); note: nearly all actives have a fitted effect of over 55% in size
Settings: Gynecologic cancer cell panel viability, ATPlite luminescence, 48 h; series mostly up to 57.5 µM
Text: National Center for Advancing Translational Sciences [NCATS] Assay Overview: Chemotherapeutic drug responses vary from cancer to cancer and from patient to patient. […] ATPlite is a luminescence based assay reliant on the conversion of a luciferase substrate to light in the presence of ATP. As a cytotoxic compound will suppress growth and decrease the number of cells, the concentration of ATP will decrease, and less light signal will be detected in the well. […]
Records with an inconclusive call do not appear. The source made the active and inactive calls. Calls come from the whole dose curve; as a rule, active = well fitted cell-killing curve with a large enough effect; inconclusive = small, poorly fitted or top-dose-only effect, or effect the other way; inactive = flat fitted curve, though single readings scatter.
Log the outcome using a class from YES for active, NO for inactive

>  <structure_smiles_string>
CN(C)CCCSc1ccccc1NC(=O)/C=C/c1ccccc1

>  <class_name>
NO

$$$$
>  <structure_smiles_string>
O=C(O)CCC(=O)c1ccc(-c2ccccc2)cc1

>  <class_name>
NO

$$$$
>  <structure_smiles_string>
C=C1[C@H](CO)[C@@H](O)C[C@@H]1n1cnc2c(=O)[nH]c(N)nc21

>  <class_name>
NO

$$$$

Query compound follows.
# input Just curious, what result did C[C@H]1O[C@@H](O[C@H]2[C@@H](O)C[C@H](O[C@H]3[C@@H](O)C[C@H](O[C@H]4CC[C@@]5(C)[C@H](CC[C@@H]6[C@@H]5C[C@@H](O)[C@]5(C)[C@@H](C7=CC(=O)OC7)CC[C@]65O)C4)O[C@@H]3C)O[C@@H]2C)C[C@H](O)[C@@H]1O get here?
# output YES
